- target of assay: SARS-CoV-2 3CL-protease (Severe acute respiratory syndrome coronavirus 2)
- procedure text: SARS-CoV-2 3C-like (3CL) protease fluorescence assay (FRET)
- Format: biochemical
- reported conditions: recombinant SARS-CoV-2 3CL-protease 10 nM, 30 min preincubation, run in duplicate; read-out: FRET IC50
test readout: IC50

# compound, target of assay, IC50
measured = [
    ("CC(C)(C)C[C@H](NC(=O)C(=O)OCc1ccccc1)C(=O)N1C[C@]2(C[C@H]1C#N)C(=O)Nc1ccccc12 [Example 189]", "SARS-CoV-2 3CL-protease (Severe acute respiratory syndrome coronavirus 2)", "> 1000 nM"),
    ("Cc1cccc(NC(=O)C(=O)N[C@@H](CC(C)(C)C)C(=O)N2C[C@]3(C[C@H]2C#N)C(=O)Nc2ccccc23)n1 [Example 163]", "SARS-CoV-2 3CL-protease (Severe acute respiratory syndrome coronavirus 2)", "< 100 nM"),
    ("Cc1cccc(C)c1NC(=O)C(=O)N[C@@H](CC1CC1)C(=O)N1C[C@]2(C[C@H]1C#N)C(=O)Nc1ccccc12 [Example 78]", "SARS-CoV-2 3CL-protease (Severe acute respiratory syndrome coronavirus 2)", "< 100 nM"),
]

Consider the following items and state reported IC50 for each.
1. CC(C)(C)C[C@H](NC(=O)C(=O)N1CCC(F)(F)CC1)C(=O)N1C[C@]2(C[C@H]1C#N)C(=O)Nc1ccccc12 [Example 111]
2. CC(C)(C)C[C@H](NC(=O)C(=O)NC(C)(C)c1ccccn1)C(=O)N1C[C@]2(C[C@H]1C#N)C(=O)Nc1ccccc12 [Example 106]
3. N#C[C@@H]1C[C@@]2(CN1C(=O)[C@H](CC1CC1)NC(=O)C(=O)Nc1cncc(C(F)(F)F)c1)C(=O)Nc1ccccc12 [Example 173]
4. CCCC[C@H](NC(=O)C(=O)Nc1c(C)cccc1C)C(=O)N1C[C@]2(C[C@H]1C#N)C(=O)Nc1ccccc12 [Example 202]

["> 1000 nM", "< 100 nM", "< 100 nM", "< 100 nM"]
